# key: entry, value: koff
# tgt: T1, Recombinant MBP-mutCALR Type 1 fusion protein (human)
# T1 construct: custom made at Cepter; also called recombinant mutCALR protein
# run.description: SPR, IgG captured, 1:1 fit, Exp. 1
Number in s⁻¹, nothing else.

Worked cases, answers included:
anti-mutCALR antibody clone 29 (antibody, human IgG1, lambda, V domains shown, human IgG1) VH: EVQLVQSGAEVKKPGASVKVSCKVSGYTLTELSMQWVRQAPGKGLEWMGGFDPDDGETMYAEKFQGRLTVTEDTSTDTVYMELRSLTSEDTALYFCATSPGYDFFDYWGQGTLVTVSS VL: SYVLTQPPSVSVAPGKTARITCGGNNIGSKSVHWYQQKPGQAPVLVVYDDSDRPSGIPERFSGSNSGNTATLTISRVEAGDEADYYCQVWDSSSDLLIFGGGAKLTVLG    0.00561
anti-mutCALR antibody clone 10 (antibody, human IgG1, lambda, V domains shown, human IgG1) VH: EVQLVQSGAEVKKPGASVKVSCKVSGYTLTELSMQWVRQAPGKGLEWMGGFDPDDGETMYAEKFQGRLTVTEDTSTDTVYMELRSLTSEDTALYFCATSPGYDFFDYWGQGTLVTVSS VL: SYELTQPPSVSVAPGQTARIPCGGNNIGSEGVHWYQQKPGQAPVLVVYDDSDRPSGIPERFSGSNSGNTATLTISRVEAGDEADYYCQVWDSSNDLLIFGGGTKLTVLG    0.00292

Turning to the following binder.
stdin: Field request: koff | item: anti-mutCALR antibody clone 44 (antibody, human IgG1, lambda, V domains shown, human IgG1) VH: EVQLVQSGAEVKKPGSSVKVSCKASGGTFSSYAISWVRQAPGQGLEWMGGIIPIFGTANYAQKFQGRVTITADESTSTAYMELSSLRSEDTAVYYCASSPLRGSGWYWHYYYGMDVWGQGTTVTVSS VL: SYVLTQPPSVSAAPGKTARISCGGNNIRSKSVHWYQQKAGQAPVLVIYQDSKRPSGIPERFSGSNSGNTATLTISGTQAMDEADYYCQAWDSNTVVFGGGTKLTVLG
stdout: 0.00101
